molecular target: UniProt:P00791
Sequence (P00791 60-385): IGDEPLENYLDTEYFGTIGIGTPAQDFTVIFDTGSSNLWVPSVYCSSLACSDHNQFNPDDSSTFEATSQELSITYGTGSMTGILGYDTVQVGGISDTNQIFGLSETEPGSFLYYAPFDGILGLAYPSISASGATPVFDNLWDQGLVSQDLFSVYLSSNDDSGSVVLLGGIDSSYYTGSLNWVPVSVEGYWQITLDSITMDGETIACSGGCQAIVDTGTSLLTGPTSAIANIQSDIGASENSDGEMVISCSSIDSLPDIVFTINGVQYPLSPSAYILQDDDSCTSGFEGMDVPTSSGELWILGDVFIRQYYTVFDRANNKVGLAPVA
pIC50: −log10 of the molar value. Non-standard residues stand in square brackets, D forms with d. Residues, ends and D or L forms follow the SMILES beside them. *: point of attachment. X1 = COC(=O)C[C@@H](O)[C@H](CC(C)C)N*; Benzenesulfonyl = O=S(=O)(c1ccccc1)*; Sta = CC(C)C[C@H](N)[C@@H](O)CC(=O)O; Hydrocinnamoyl = O=C(CCc1ccccc1)*; X2 = O=C(NCCS(=O)(=O)*)OCc1ccccc1; Isovaleryl = CC(C)CC(=O)*; Nva = CCC[C@H](N)C(=O)O; Cbz = O=C(OCc1ccccc1)*; Boc = CC(C)(C)OC(=O)*

MOLECULE | pIC50
COC(=O)C[C@H](O)[C@H](CC(C)C)NC(=O)[C@H](C)NC(=O)C[C@H](O)[C@H](CC(C)C)NC(=O)[C@H](Cc1c[nH]cn1)NC(=O)[C@H](Cc1ccccc1)NS(=O)(=O)CCNC(=O)OCc1ccccc1 [SR 41748, Z--Tau--Phe--His--Sta--Ala--Sta--OCH3] (X2-FH[Sta]A[Sta]-OMe) | 6.21
COC(=O)C[C@H](O)[C@H](CC(C)C)NC(=O)[C@H](C)NC(=O)C[C@H](O)[C@H](CC(C)C)NC(=O)[C@H](CC(C)C)NC(=O)[C@H](Cc1ccccc1)NC(=O)CC(C)C [SR 41765, iVa--Phe--Leu--Sta--Ala--Sta--OMe] (Isovaleryl-FL[Sta]A[Sta]-OMe) | 8.10
COC(=O)C[C@H](O)[C@H](CC(C)C)NC(=O)[C@H](C)NC(=O)C[C@H](O)[C@H](CC(C)C)NC(=O)[C@@H](NC(=O)[C@H](Cc1ccc(O)cc1)NC(=O)OCc1ccccc1)C(C)C [SR 41476, Z--Tyr--Val--Sta--Ala--Sta--OMe] (Cbz-YV[Sta]A[Sta]-OMe) | 7.62
COC(=O)C[C@H](O)[C@H](CC(C)C)NC(=O)[C@H](C)NC(=O)C[C@H](O)[C@H](CC(C)C)NC(=O)[C@H](Cc1ccccc1)NC(=O)[C@H](Cc1ccccc1)NC(=O)CCc1ccccc1 [SR 41768] (Hydrocinnamoyl-FF[Sta]A[Sta]-OMe) | 7.38
COC(=O)C[C@H](O)[C@H](CC(C)C)NC(=O)[C@H](C)NC(=O)C[C@H](O)[C@H](CC(C)C)NC(=O)[C@@H](NC(=O)[C@H](Cc1c[nH]c2ccccc12)NC(=O)OCc1ccccc1)C(C)C [SR 41485, Z--Trp--Val--Sta--Ala--Sta--OMe] (Cbz-WV[Sta]A[Sta]-OMe) | 7.54
COC(=O)C[C@H](O)[C@H](CC(C)C)NC(=O)[C@H](C)NC(=O)C[C@H](O)[C@H](CC(C)C)NC(=O)[C@H](Cc1ccccc1)NC(=O)[C@H](Cc1ccccc1)NC(=O)CC(C)C [SR 41764, iVa--Phe--Phe--Sta--Ala--Sta--OMe] (Isovaleryl-FF[Sta]A[Sta]-OMe) | 7.38
COC(=O)C[C@@H](O)[C@H](CC(C)C)NC(=O)[C@H](C)NC(=O)C[C@H](O)[C@H](CC(C)C)NC(=O)[C@H](Cc1ccccc1)NC(=O)[C@H](Cc1ccccc1)NC(=O)CC(C)C [SR 41766, iVa--Phe--Phe--Sta--Ala--isoSta--OMe] (Isovaleryl-FF[Sta]A-X1) | 7.24
CC[C@H](C)[C@H](NC(=O)[C@H](Cc1ccccc1)NC(=O)OCc1ccccc1)C(=O)N[C@@H](CC(C)C)[C@@H](O)CC(=O)N[C@@H](C)C(=O)N[C@@H](CC(C)C)[C@@H](O)CC(=O)OC [SR 41477, Z--Phe--ILe--Sta--Ala--Sta--OMe] (Cbz-FI[Sta]A[Sta]-OMe) | 7.42
COC(=O)C[C@H](O)[C@H](CC(C)C)NC(=O)[C@H](C)NC(=O)C[C@H](O)[C@H](CC(C)C)NC(=O)[C@@H](NC(=O)[C@H](Cc1ccccc1)NC(=O)OCc1ccccc1)C(C)C [SR 41405, Z--Phe--Val--Sta--Ala--Sta--OMe] (Cbz-FV[Sta]A[Sta]-OMe) | 7.19
COC(=O)C[C@H](O)[C@H](CC(C)C)NC(=O)[C@H](C)NC(=O)C[C@H](O)[C@H](CC(C)C)NC(=O)[C@H](Cc1c[nH]cn1)NC(=O)[C@H](Cc1ccccc1)NC(=O)OC(C)(C)C [SR 41395, Boc--Phe--His--Sta--Ala--Sta--OMe] (Boc-FH[Sta]A[Sta]-OMe) | 5.89
CCC[C@H](NC(=O)[C@H](Cc1ccccc1)NC(=O)CC(C)C)C(=O)N[C@@H](CC(C)C)[C@@H](O)CC(=O)N[C@@H](C)C(=O)N[C@@H](CC(C)C)[C@@H](O)CC(=O)OC [SR 41995, iVa--Phe--Nva--Sta--Ala--Sta--OMe] (Isovaleryl-F[Nva][Sta]A[Sta]-OMe) | 7.80
COC(=O)C[C@H](O)[C@H](CC(C)C)NC(=O)[C@H](C)NC(=O)C[C@H](O)[C@H](CC(C)C)NC(=O)[C@H](C)NC(=O)[C@H](Cc1ccccc1)NC(=O)CC(C)C [SR 42258, iVa--Phe--Ala--Sta--Ala--Sta--OMe] (Isovaleryl-FA[Sta]A[Sta]-OMe) | 7.74
COC(=O)C[C@H](O)[C@H](CC(C)C)NC(=O)[C@H](C)NC(=O)C[C@H](O)[C@H](CC(C)C)NC(=O)[C@H](Cc1ccccc1)NC(=O)[C@H](Cc1ccccc1)NS(=O)(=O)c1ccccc1 [SR 41938] (Benzenesulfonyl-FF[Sta]A[Sta]-OMe) | 7.20
CC(C)C[C@H](NC(=O)[C@H](C)NC(=O)C[C@H](O)[C@H](CC(C)C)NC(=O)[C@H](Cc1ccccc1)NC(=O)[C@H](Cc1ccccc1)NC(=O)OCc1ccccc1)[C@@H](O)CC(=O)O [SR 41225, Z--Phe--Phe--Sta--Ala--Sta--OH] (Cbz-FF[Sta]A[Sta]-OH) | 7.05
